species on record: Bos taurus; assay: Relative inhibition of bovine heart cAMP phosphodiesterase compared to theophylline
Listed compounds paired with reported Ratio

{"columns": ["lineNotation", "Ratio"],
 "data": [
  ["CCOC(=O)c1cnc2ccnn2c1N(CC)CC", 2.3],
  ["CCOC(=O)c1cnc2c(Br)cnn2c1N(CC)CC", 3.5],
  ["CCOC(=O)c1cnc2c(Br)cnn2c1NCC(=O)O", 2.6],
  ["CCOC(=O)c1cnc2c(C(=O)OCC)cnn2c1N", 0.7],
  ["CCOC(=O)c1cnc2ccnn2c1S", 1.2]
]}
